Test system: PPARg DBDmut IVT, anti-PPARg (DBD mutation: PPARg1 K132A/R137A, NR concentration 270 nM)
Assay: PBM binding z-score (relative to random genomic background probes); higher = stronger binding; sequences stand for … in GC…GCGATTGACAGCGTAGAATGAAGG
// false strictly below 0.7 in PBM binding z-score; true otherwise

Here's what some known entries look like.
> print(dat)
                                  seq  label.class
1  ATCTCTAGGTAAGACTCAGTTAAGTGAAGAACGC         true
2  GTACCAAGGTGAACAGGTCGTTGATGAGTAGGCG        false
3  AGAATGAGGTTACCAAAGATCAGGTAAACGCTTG        false

For this sequence, is measured PBM binding z-score 0.7 or higher? "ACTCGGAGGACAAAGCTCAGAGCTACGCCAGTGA" false

Request: "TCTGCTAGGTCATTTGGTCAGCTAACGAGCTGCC" true

Moving on to the next sequence: "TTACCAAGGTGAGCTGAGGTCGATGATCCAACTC" false

Try this sequence too: "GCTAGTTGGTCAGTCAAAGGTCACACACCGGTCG" false

Then "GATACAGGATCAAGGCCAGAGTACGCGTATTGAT" ? false

For "CAAACTAGGTCACCGAGGTCAAAGTCCGTGCGTA" then? true

Repeat with "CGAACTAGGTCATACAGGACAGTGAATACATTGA" true

Let us now turn to "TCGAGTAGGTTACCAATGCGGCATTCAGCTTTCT" false
